Test: Calculated human equivalent dose (HED) of the NOAEL
Conditions: human
Recorded endpoint: NOAEL (mg/kg)
Reply with just the number (in mg/kg).

Which NOAEL is reported for this compound? CN[C@@H](C)Cc1ccc2c(c1)OCO2 [S(+)MDMA]
6

Which NOAEL is reported for this compound? CN[C@H](C)Cc1ccc2c(c1)OCO2 [R-MDMA]
7.4
